From: PubChem BioAssay (EPA / NIEHS)

experiment: BSK_SAg_SRB: Viability Assessment in the BioMAP Diversity Plus: SAg Assay (AID 2283096); settings: primary human HUVEC with PBMC;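 also: cells read one day after compound addition; hits may be either gain or loss of signal compared with DMSO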
The source made the active and inactive calls. The calls were made as follows: active = hit-call score of the fitted dose curve at least 0.9, where 1 is the maximum; inactive = score below 0.9.
Labels: true (active), false (inactive)

compound="N#Cc1nn(-c2c(Cl)cc(C(F)(F)F)cc2Cl)c(N)c1S(=O)C(F)(F)F (stereo unspecified)" classification=true
compound="Cc1c(F)c(F)c(COC(=O)C2C(/C=C(\\Cl)C(F)(F)F)C2(C)C)c(F)c1F (stereo unspecified)" classification=true
compound="N#CC(CCc1ccc(Cl)cc1)(Cn1cncn1)c1ccccc1 (stereo unspecified)" classification=false
compound="CCCCC(CC)COC(=O)c1ccccc1C(=O)OCC(CC)CCCC (stereo unspecified)" classification=true
compound=CCCN(CCC)c1c([N+](=O)[O-])cc(S(N)(=O)=O)cc1[N+](=O)[O-] classification=true
compound=CCNc1nc(Cl)nc(NC(C)C)n1 classification=false
